The measured values listed here are drawn from patent US6525001B1.

system: ladysthumb smartweed (Polygonum persicaria); assay: Test C; format: in vivo; details: PREEMERGENCE, Rate 140 g/ha
valueType: Plant response rating, Ladysthumb

Query string: For the compound `Cc1cnc(-n2ccc(C(F)(F)F)n2)nc1Cc1cccc(OC(F)(F)F)c1` , give its reported Plant response rating, Ladysthumb.
Result string: 95

Query string: For the compound `Cc1cnc(-c2ccc(C(F)(F)F)cc2)nc1Cc1cccc(OC(F)(F)F)c1` , give its reported Plant response rating, Ladysthumb.
Result string: 90

Query string: For the compound `COc1cnc(-c2ccc(C(F)(F)F)cc2)nc1Cc1cccc(C(F)(F)F)c1` , give its reported Plant response rating, Ladysthumb.
Result string: 80

Query string: For the compound `Cc1cnc(-c2ccc(C(F)(F)F)cc2)nc1Cc1cccc(C(F)(F)F)c1` , give its reported Plant response rating, Ladysthumb.
Result string: 95

* * *

system: blackgrass (Alopecurus myosuroides); experiment: Test B pre-/postemergence; type: in vivo; conditions: Rate 125 g/ha, Preemergence
valueType: Plant response rating, Blackgrass
Write no unit; give the number alone.

Query string: For the molecule `Cc1cnc(-c2ccc(C(F)(F)F)cc2)nc1C(=O)c1cccc(OC(F)(F)F)c1` , give its reported Plant response rating, Blackgrass.
Result string: 8

Query string: For the molecule `COc1cnc(-n2ccc(C(F)(F)F)n2)nc1C(=O)c1cccc(C(F)(F)F)c1` , give its reported Plant response rating, Blackgrass.
Result string: 1

Query string: For the molecule `Cc1cnc(-n2ccc(C(F)(F)F)n2)nc1C(=O)c1cccc(C(F)(F)F)c1` , give its reported Plant response rating, Blackgrass.
Result string: 3

Query string: For the molecule `Cc1cnc(-n2cnc(C(F)(F)F)c2)nc1C(=O)c1cccc(C(F)(F)F)c1` , give its reported Plant response rating, Blackgrass.
Result string: 3

Query string: For the molecule `Cc1cnc(-c2ccc(C(F)(F)F)cc2)nc1Cn1cc(Br)cn1` , give its reported Plant response rating, Blackgrass.
Result string: 1

Query string: For the molecule `CCc1cnc(-n2ccc(C(F)(F)F)n2)nc1C(=O)c1cccc(C#N)c1` , give its reported Plant response rating, Blackgrass.
Result string: 1

* * *

system: wild oat (Avena fatua); experiment: Test B pre-/postemergence; format: in vivo; parameters: key: 0 is no effect; 10 is complete control; settings: Rate 125 g/ha, Preemergence
I'd be grateful if you could share measured Plant response rating, Wild oats for these entries.

Query string: For the molecule N#Cc1ccc(-c2nccc(C(=O)c3cccc(C(F)(F)F)c3)n2)cc1 [Compound 78] , give its reported Plant response rating, Wild oats.
Result string: 0

Query string: For the molecule Cc1cnc(-c2ccc(F)c(Cl)c2)nc1Cc1cccc(C#N)c1 [Compound 40] , give its reported Plant response rating, Wild oats.
Result string: 0

Query string: For the molecule Cc1cnc(-c2ccc(F)cc2F)nc1Cc1cccc(C#N)c1 [Compound 34] , give its reported Plant response rating, Wild oats.
Result string: 0

Query string: For the molecule Cc1cnc(-c2ccc(F)cc2F)nc1Cc1cccc(C(F)(F)F)c1 [Compound 31] , give its reported Plant response rating, Wild oats.
Result string: 1

Query string: For the molecule Cc1cnc(-n2cnc(C(F)(F)F)n2)nc1C(=O)c1cccc(OC(F)(F)F)c1 [Compound 64] , give its reported Plant response rating, Wild oats.
Result string: 4

Query string: For the molecule Cc1cnc(-c2ccc(C(F)(F)F)cc2)nc1Cn1cc(Br)cn1 [Compound 54] , give its reported Plant response rating, Wild oats.
Result string: 1

Query string: For the molecule Cc1cnc(-c2ccccc2F)nc1Cc1cccc(C(F)(F)F)c1 [Compound 26] , give its reported Plant response rating, Wild oats.
Result string: 0

Query string: For the molecule Cc1cnc(-n2cnc(C(F)(F)F)n2)nc1C(=O)c1cccc(C(F)(F)F)c1 [Compound 67] , give its reported Plant response rating, Wild oats.
Result string: 5

Query string: For the molecule CCc1cnc(-n2cnc(C(F)(F)F)n2)nc1Cc1cccc(OC(F)(F)F)c1 [Compound 50] , give its reported Plant response rating, Wild oats.
Result string: 4

Query string: For the molecule Cc1cnc(-n2ccc(C(F)(F)F)n2)nc1C(=O)c1cccc(OC(F)(F)F)c1 [Compound 66] , give its reported Plant response rating, Wild oats.
Result string: 4
